system: Escherichia coli; test: In vitro antibacterial evaluation: minimum inhibitory concentration (MIC), broth dilution method; type: cell-based; details: broth dilution, 18 hours at 35° C.
property-name: MIC Escherichia coli (ATCC 25922) (µg/mL)
The response must be a number in µg/mL with no trailing unit.

>>> recorded_number("CC(c1ccccc1)C1NC(=O)CNC(=O)C(CO)NC(=O)C(C(O)C2CNC(=N)N2C2OC(CO)C(O)C(O)C2O)NC(=O)C(C(O)C2CNC(=N)N2)NC(=O)C(Cc2ccc3oc(SCc4ccc5ccccc5c4)nc3c2)NC1=O (stereo not shown)")
64
>>> recorded_number("CC(c1ccccc1)C1NC(=O)CNC(=O)C(CO)NC(=O)C(C(O)C2CNC(=N)N2C2OC(CO)C(O)C(O)C2O)NC(=O)C(C(O)C2CNC(=N)N2)NC(=O)C(Cc2ccc3oc(-c4cccc(F)c4)nc3c2)NC1=O (stereo not shown)")
32

Okay, next one:
Reported MIC Escherichia coli (ATCC 25922) for Escherichia coli, given CC(c1ccccc1)C1NC(=O)CNC(=O)C(CO)NC(=O)C(C(O)C2CNC(=N)N2C2OC(CO)C(O)C(O)C2O)NC(=O)C(C(O)C2CNC(=N)N2)NC(=O)C(Cc2ccc3oc(-c4ccc(Br)cc4)nc3c2)NC1=O (stereo not shown) ? 32
